Biological target: BRD2 (Homo sapiens, UniProt P25440)
Construct: BRD2-BD12 (engineered protein containing both bromodomains)
Sequence (P25440 74-453 limits assumed): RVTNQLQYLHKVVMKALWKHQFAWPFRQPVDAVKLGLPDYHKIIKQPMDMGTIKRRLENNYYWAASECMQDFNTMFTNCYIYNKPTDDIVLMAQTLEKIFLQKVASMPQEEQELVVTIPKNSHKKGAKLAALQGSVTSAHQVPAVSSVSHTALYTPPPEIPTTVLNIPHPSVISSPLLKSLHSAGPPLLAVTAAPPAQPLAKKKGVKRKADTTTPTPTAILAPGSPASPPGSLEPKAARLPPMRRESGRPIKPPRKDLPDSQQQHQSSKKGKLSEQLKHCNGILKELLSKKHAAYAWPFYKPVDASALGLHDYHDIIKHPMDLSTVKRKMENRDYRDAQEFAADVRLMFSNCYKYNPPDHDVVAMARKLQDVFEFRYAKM
Test: substrate binding (displacement) assay with engineered tandem bromodomain protein
Settings: read-out: PLX2853 / IC50 (μM) ^a
measuredEndpoint: IC50

Request: # lookup: IC50 of Cc1noc(C)c1-c1cnc2c(-c3ccc(C(=O)O)cc3)cn(C(C)(c3ccccn3)c3ccccn3)c2c1
Response: 0.0073 µM

----------
Target: BRD2 (Homo sapiens)
Construct: BRD2-BD12 (engineered protein containing both bromodomains)
Assay: substrate binding (displacement) assay with engineered tandem bromodomain protein
measuredEndpoint: pIC50
Give bare numbers, as −log10 of the molar value.

Request: # lookup: pIC50 of Cc1noc(C)c1-c1cnc2c(-c3ccc(C(=O)O)cc3)cn([C@@H](C)c3ccccn3)c2c1 [PLX51107]
Response: 7.28

----------
Target: BRD4 (Homo sapiens, UniProt O60885)
Construct: BRD4-BD12 (engineered protein containing both bromodomains)
Assay: substrate binding (displacement) assay with engineered tandem bromodomain protein
Conditions: read-out: PLX2853 / IC50 (μM) ^a
measuredEndpoint: IC50 (µM)
Answers are plain numbers, in µM.

Request: # lookup: IC50 of Cc1noc(C)c1-c1cnc2c(-c3ccc(C(=O)O)cc3)cn(C(C)(c3ccccn3)c3ccccn3)c2c1 [PLX2853]
Response: 0.0043
